target: Tyrosine-protein kinase Fes/Fps (Homo sapiens) (UniProt P07332); settings: at 1 µM;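 note: mean inhibition of FES from the GSK PKIS kinase inhibitor screening set, assayed by Nanosyn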
Sequence (P07332 whole entry): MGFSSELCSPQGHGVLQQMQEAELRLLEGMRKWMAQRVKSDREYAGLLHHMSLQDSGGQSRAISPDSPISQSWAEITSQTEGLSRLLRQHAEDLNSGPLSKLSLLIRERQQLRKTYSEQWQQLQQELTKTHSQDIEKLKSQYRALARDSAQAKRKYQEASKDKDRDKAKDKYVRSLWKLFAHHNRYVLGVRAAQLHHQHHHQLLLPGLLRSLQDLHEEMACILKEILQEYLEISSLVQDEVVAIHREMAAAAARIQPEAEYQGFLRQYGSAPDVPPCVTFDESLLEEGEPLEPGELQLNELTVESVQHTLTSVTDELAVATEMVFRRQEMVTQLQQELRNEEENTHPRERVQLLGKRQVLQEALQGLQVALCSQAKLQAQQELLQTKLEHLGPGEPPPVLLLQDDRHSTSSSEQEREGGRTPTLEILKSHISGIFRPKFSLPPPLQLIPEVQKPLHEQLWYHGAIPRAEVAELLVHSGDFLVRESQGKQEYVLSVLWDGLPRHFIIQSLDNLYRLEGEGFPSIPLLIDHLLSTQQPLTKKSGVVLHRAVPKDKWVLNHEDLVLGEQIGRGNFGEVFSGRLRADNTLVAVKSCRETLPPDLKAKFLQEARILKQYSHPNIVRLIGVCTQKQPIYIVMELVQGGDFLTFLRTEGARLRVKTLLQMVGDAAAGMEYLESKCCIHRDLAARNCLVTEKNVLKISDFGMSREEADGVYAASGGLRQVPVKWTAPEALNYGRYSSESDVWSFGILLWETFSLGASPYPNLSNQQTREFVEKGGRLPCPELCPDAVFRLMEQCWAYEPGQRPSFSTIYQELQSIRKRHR
Assign inhibition to each entry below.
Answers are plain numbers, in %.

# annotated cases, reported inhibition shown
1. c1cnn2ncc(-c3ccnc(NCCCN4CCOCC4)n3)c2c1 | 5.72
2. CNC(=O)c1cncc(/C=C/c2ccccc2C)c1 | 1.6
3. COc1c(C(N)=O)cc(-c2ccc(Cl)cc2)cc1-c1ccc(S(N)(=O)=O)cc1 | 5.26
4. Cc1ccc(-c2cc3c(NC(=O)C4CC4)ncnc3o2)cc1 | 7.73
5. Cn1c(-c2nonc2N)nc2cnccc21 | 3.53

Each compound below has a reported value. Please supply its inhibition.
1. CS(=O)(=O)Nc1ccc(-c2cc(-c3ccccc3)cc(C(N)=O)c2N)cc1
2. CCS(=O)(=O)c1ccc(OC)c(Nc2ncc(-c3cccc(C(C)=O)c3)o2)c1
3. FC(F)(F)CNc1nccc(-c2cnn3ncccc23)n1

1: 1.64; 2: 2.72; 3: 1.66

Give me inhibition for each of these compounds, listed below.
1. CCN1CCC(C(=O)Nc2n[nH]c3nnc(-c4cccc(F)c4F)cc23)CC1
2. CN(C)CCNC(=O)Nc1ccc(N(C)c2ccnc(Nc3ccc(CS(C)(=O)=O)cc3)n2)cc1
3. CS(=O)(=O)Nc1ccc(-c2ccc3c(NC(=O)C4CC4)n[nH]c3c2)cc1
4. Fc1cccc(COc2ccc(Nc3ncncc3C#Cc3ccccc3)cc2Cl)c1
5. CS(=O)(=O)CCNCc1ccc(-c2ccc3ncnc(Nc4ccc(OCc5ccccc5)cc4)c3c2)o1
6. O=C(Nc1n[nH]c2nnc(-c3cccnc3)cc12)C1CC1

[-1.05, 6.7, 4.38, 3.61, 3.54, -1.66]
